molecular target: Gemin5 WD40 domain (Homo sapiens, UniProt Q8TEQ6 1-739); assay: ITC
Sequence (Q8TEQ6 1-739): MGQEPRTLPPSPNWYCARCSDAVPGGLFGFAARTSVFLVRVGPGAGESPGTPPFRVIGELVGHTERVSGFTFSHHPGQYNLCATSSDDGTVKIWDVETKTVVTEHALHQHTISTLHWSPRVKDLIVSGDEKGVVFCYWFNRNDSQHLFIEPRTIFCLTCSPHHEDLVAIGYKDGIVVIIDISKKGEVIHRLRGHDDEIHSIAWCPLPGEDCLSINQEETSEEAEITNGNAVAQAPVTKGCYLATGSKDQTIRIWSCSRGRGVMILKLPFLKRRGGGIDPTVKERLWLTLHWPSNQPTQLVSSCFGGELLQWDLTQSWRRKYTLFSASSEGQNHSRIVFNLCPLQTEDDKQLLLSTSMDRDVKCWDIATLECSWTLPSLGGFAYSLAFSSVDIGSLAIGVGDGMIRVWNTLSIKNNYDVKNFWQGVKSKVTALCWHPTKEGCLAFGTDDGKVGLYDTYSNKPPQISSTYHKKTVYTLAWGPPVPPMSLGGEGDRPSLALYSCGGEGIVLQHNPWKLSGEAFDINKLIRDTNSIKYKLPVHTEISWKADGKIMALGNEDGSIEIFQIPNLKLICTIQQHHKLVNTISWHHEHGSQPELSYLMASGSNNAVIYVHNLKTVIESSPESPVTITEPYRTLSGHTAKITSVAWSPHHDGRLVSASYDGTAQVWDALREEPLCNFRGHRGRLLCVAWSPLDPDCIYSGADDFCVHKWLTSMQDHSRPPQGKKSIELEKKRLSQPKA
recorded-endpoint: pKd
FYI, pKd means -log10 of a concentration in mol per litre.

Param item = AAUCUUUG (ssRNA) [pre-U4 (118-125) U121C] ; retrieve measured pKd.
4.96
